# TGI per record follows
- Tested on: SK-MEL-2 melanoma
- experimentDescription: NCI tumour cell line growth inhibition, 48 h

molecule	readoutUnits	resultOperator	TGI
CN(C)NC1=C([N+](=O)[O-])C=NN(c2ccccc2)C1	µM	=	3.21
O=C(NC1CC1)c1c(O)[nH]c(=S)[nH]c1=O	µM	>	100
COc1cccc2c1C(=O)c1c(O)c3c(c(O)c1C2=O)C[C@@](O)(/C(CO)=N/NC(=O)CCCCCN1C(=O)C=CC1=O)C[C@@H]3O[C@H]1C[C@H](N)[C@H](O)[C@H](C)O1	µM	=	5.33
c1ccc(-c2[nH]ncc2-c2ccnc(-c3ccc(OCCN4CCOCC4)cc3)c2)nc1	µM	>	25
CNC(=O)C(C)Oc1ccc(OCC2CCCCC2)cc1 (centres undefined)	µM	>	100
CCN(CC)CCNc1ccc2ncn3c4ccc(OC)cc4c(=O)c1c23	µM	=	25.4
CC(=O)Nc1cc(Cl)cc(Cl)c1O	µM	>	100
CC1(C)c2ccccc2N2C(c3ccccc3)=NOC21C (centres undefined)	µM	>	100
CC1(c2ccccc2)O[C@@H]2C[C@H]3[C@@H]4CCC5=CC(=O)C=C[C@]5(C)[C@@]4(F)[C@@H](O)C[C@]3(C)[C@]2(C(=O)CO)O1 (some centres undefined)	µM	=	28.3

---

# TGI per record follows
- Test system: SN12C renal
- experimentDescription: NCI tumour cell line growth inhibition, 48 h
measureName: TGI

compound	observed
O=C1C=C(NCCO)c2nccc3c2c1nc1ccccc13	> 100 µM
O=C(/C=C/c1ccccc1)c1cccc2ccccc12	15.4 µM
Cc1ccc2[nH]c3c(c(=O)n(C)c(=O)n3C)c2c1	> 100 µM
CC(C)c1oc(=O)cc2c1C(O)C1OC(=O)C3(C)C(O)C4OC4C2(C)C13 (stereo not given)	7.05 µM
CC(=O)[CH-]C(=O)c1ccccc1.CC(=O)[CH-]C(=O)c1ccccc1.Cl.[O-]c1ccnc2ccccc12.[O-]c1ccnc2ccccc12.[Ti+4]	> 100 µM
O=c1[nH]c(=O)c2c([nH]1)[nH]c1ccc(Br)cc12	> 100 µM
O=S1SC(=S)C2C=CC=NC21 (stereo not given)	28.8 µM
COc1ccc(Oc2nc3cc(N)cc(N)c3nc2-c2ccccc2)cc1	> 100 µM
C/C=C(\N=C=S)C(=O)OC1C(COC(C)=O)OC([C@]2(O)CC(=O)C(=N)C(C(=O)O)=C2O)C(O)C1OC1CC(OC)C(O)([C@@H](C)OC(=O)[C@@H](C)CC)C(C)O1 (stereo not given in full)	40 µM
CC(O)CNC(=O)Nc1c(C(F)(F)F)cc(-c2ccccc2)[nH]c1=O (stereo not given)	> 100 µM
c1ccc(C2=NN2c2ccccc2)cc1	> 100 µM
N=c1oc2ccccc2cc1C(=O)Nc1cccc2ccccc12	> 100 µM
Cc1sc(C(=O)c2cncnc2N[C@@H]2C[C@H](COS(N)(=O)=O)[C@@H](O)C2)cc1[C@@H]1NCCc2ccc(Cl)cc21	24.5 µM
CN1CCC2(CC1)N=C(SCC(=O)Nc1cnc3ccccc3c1)C(c1ccc(Br)cc1)=N2	4.99 µM
O=S(=O)(NC1=NCCN1C(=S)SN1CCn2c1nsc2=S)c1ccc(Oc2ccccc2)cc1	> 100 µM
Cc1ccc(/C=N/NC(=O)c2ccccc2Oc2ccccc2)o1	> 100 µM
COC(=O)C1=CC2C(=O)OC1C1C(=O)NC(=O)C21 (stereo not given)	> 100 µM
CNc1cc([N+](=O)[O-])ccc1C(=O)N1CCC[C@H]1CO	> 100 µM
COc1ccccc1-n1nnc2c(N)nc(N)nc21	> 100 µM
CC1(c2ccccc2)O[C@@H]2C[C@H]3[C@@H]4CCC5=CC(=O)C=C[C@]5(C)[C@@]4(F)[C@@H](O)C[C@]3(C)[C@]2(C(=O)CO)O1 (stereo not given in full)	26.1 µM
